Listed here are variants together with their documented protein stability index.
B1: SCNN1D (parent)
chain: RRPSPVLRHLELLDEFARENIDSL

# Variants of: B1
# EXPERIMENT_SUMMARY: protein stability index of a GFP-peptide fusion (GPS, HEK-293T) (PSI 1-6); higher = more stable;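 further: lentivirally expressed fusions sorted by FACS into six bins by GFP to DsRed ratio, PSI derived from sequencing read proportions per bin multiplied by bin number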
# MEASUREMENT_SETUP: c terminus: a fixed tail appended
Hey, just send me the number, nothing else.

Consider the worked cases shown below.
1) RRPSPVLRHLELLDEFRRENIDSL: 2.94
2) RRPSPVLRHLELLDEFAFENIDSL: 3
3) RRPSPVLRHLELLDEFVRENIDSL: 2.94
4) RRPSPVLRHYELLDEFARENIDSL: 3
5) RRPSPVLRHLELLDEFMRENIDSL: 2.92
6) RRKSPVLRHLELLDEFARENIDSL: 3.06

The recorded protein stability index for entry RRPSPVLRHLELLDEFWRENIDSL equals 3.03
